Biological target: human CCR-3 (Homo sapiens)
Sequence (P51677 whole entry): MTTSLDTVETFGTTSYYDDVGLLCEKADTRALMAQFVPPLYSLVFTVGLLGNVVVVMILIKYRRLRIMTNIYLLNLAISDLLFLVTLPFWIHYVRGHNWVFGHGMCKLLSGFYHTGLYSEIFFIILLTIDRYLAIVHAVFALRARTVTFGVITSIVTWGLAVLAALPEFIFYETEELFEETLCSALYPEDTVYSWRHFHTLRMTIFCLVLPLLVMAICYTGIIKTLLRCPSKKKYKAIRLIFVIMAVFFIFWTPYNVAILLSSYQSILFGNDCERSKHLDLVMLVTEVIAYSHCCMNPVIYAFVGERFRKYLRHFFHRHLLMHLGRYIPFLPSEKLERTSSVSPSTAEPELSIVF
metric: IC50 (nM)

>>> print(df.to_string())
                              record_smiles              assayed_target  readout_value
0  COc1ccc(OC)c(S(=O)(=O)N2CCC(CN3CCN(Cc4ccc(F)cc4)CC3)CC2)c1  human CCR-3 (Homo sapiens)             56
